The measured values listed here are drawn from patent US7435837B2.

molecular target: human 5-HT2C receptor (Homo sapiens); assay: 5-HT2C receptor-stimulated calcium mobilization (FLIPR) in CHO cells; type: cell-based; conditions: calcium mobilization, CHO cells stably expressing human 5-HT2C; read-out: 5-HT2C Function EC50;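 further: Fluo-3-AM fluorescence read on FLIPR every 1 s, agonist added after 10 baseline reads, response taken as peak minus lowest raw fluorescence count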
Sequence (P28335 33-458): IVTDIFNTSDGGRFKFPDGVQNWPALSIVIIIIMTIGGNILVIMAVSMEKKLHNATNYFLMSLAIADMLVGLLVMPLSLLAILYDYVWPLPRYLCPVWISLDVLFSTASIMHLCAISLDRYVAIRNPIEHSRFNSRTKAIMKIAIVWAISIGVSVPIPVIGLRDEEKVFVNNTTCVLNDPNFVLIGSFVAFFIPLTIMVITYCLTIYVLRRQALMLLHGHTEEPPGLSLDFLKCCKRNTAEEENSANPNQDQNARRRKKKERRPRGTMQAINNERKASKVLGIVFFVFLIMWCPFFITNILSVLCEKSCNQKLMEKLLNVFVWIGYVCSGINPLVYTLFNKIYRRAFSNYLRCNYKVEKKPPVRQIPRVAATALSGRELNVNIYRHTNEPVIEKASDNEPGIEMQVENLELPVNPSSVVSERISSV
test readout: EC50
Be sure to follow the number with its unit.

Use these answered entries as a reference point.
# molecule, assayed system, test readout, result
measured = [
    ("CNCC1Cc2cccc(-c3cc(Cl)ccc3C)c2O1 (racemic) [Example 431]", "human 5-HT2C receptor (Homo sapiens)", "EC50", "63 nM"),
    ("CNCC1Cc2cc(C)cc(-c3cccc(OC)c3OC)c2O1 (single isomer, unassigned; (-)) [Example 567]", "human 5-HT2C receptor (Homo sapiens)", "EC50", "9 nM"),
]

Now for a further molecule.
Data request: I am curious: what EC50 value has been reported for CC(C)c1ccccc1-c1cccc2c1OC(CN)C2 (racemic) [Example 61] ?
Data returned: 1090 nM
